Molecular target: Protein kinase C eta type (Mus musculus, UniProt P23298)
Sequence (P23298 whole entry): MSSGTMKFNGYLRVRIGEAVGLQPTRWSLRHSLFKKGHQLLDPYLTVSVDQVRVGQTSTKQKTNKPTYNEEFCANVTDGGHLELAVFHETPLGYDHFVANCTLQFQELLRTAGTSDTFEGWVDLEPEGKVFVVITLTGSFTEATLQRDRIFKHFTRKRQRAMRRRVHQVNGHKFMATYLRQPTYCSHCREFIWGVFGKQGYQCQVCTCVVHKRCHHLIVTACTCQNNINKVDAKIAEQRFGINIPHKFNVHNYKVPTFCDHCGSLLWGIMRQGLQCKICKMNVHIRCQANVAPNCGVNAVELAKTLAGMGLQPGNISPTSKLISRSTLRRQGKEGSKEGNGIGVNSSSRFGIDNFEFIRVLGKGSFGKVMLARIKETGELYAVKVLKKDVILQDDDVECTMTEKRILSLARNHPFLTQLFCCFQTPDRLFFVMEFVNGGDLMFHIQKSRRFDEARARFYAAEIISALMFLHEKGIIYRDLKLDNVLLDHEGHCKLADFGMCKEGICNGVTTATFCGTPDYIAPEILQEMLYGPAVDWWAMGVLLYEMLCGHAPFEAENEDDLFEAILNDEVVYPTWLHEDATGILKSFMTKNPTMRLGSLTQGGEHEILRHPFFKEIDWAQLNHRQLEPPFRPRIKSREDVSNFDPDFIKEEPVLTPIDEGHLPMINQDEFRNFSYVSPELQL
Experiment: Inhibition of [3H]- PDBu binding to peptide D of mouse skin Protein kinase C eta
MEASURED QUANTITY: Ki (nM)

[[record]]
compound = "CCCC(=O)O[C@@H]1[C@@H](C)[C@@]2(O)[C@@H](C=C(CO)C[C@]3(O)C(=O)C(C)=C[C@@H]23)[C@@H]2C(C)(C)[C@]12OC(=O)CCC"
measurement_units = "nM"
result_number = 0.6

[[record]]
compound = "C=C[C@@]1(C)CC[C@](C)(C(C)C)c2cc3c4c(c[nH]c4c21)C[C@@H](CO)NC(=O)[C@H](C(C)C)N3C"
measurement_units = "nM"
result_number = 0.1

[[record]]
compound = "CCCCCCCC(=O)OCC(CO)OC(=O)CCCCCCC (stereo not drawn) [MONOCTANOIN COMPONENT C]"
measurement_units = "nM"
result_number = 14.5


* * *

Target: Protein kinase C gamma type (Rattus norvegicus, UniProt P63319)
Test: Inhibition of [3H]- PDBu binding to peptide C, rat brain PKC gamma
The molecules listed here are annotated with their Ki.
MEASURED QUANTITY: Ki (nM)

[[record]]
chemical_string = "CCCC(=O)O[C@@H]1[C@@H](C)[C@@]2(O)[C@@H](C=C(CO)C[C@]3(O)C(=O)C(C)=C[C@@H]23)[C@@H]2C(C)(C)[C@]12OC(=O)CCC"
result_number = 52.9

[[record]]
chemical_string = "C=C[C@@]1(C)CC[C@](C)(C(C)C)c2cc3c4c(c[nH]c4c21)C[C@@H](CO)NC(=O)[C@H](C(C)C)N3C"
result_number = 2

